Entries and their inhibition at 20 µM values follow.
# target-under-test: Protocollagen proline hydroxylase (Gallus gallus)
# Construct: partially purified enzyme preparation derived from chick embryos; from tissue; host or cells: chick embryos
# Sequence (P16924 whole entry): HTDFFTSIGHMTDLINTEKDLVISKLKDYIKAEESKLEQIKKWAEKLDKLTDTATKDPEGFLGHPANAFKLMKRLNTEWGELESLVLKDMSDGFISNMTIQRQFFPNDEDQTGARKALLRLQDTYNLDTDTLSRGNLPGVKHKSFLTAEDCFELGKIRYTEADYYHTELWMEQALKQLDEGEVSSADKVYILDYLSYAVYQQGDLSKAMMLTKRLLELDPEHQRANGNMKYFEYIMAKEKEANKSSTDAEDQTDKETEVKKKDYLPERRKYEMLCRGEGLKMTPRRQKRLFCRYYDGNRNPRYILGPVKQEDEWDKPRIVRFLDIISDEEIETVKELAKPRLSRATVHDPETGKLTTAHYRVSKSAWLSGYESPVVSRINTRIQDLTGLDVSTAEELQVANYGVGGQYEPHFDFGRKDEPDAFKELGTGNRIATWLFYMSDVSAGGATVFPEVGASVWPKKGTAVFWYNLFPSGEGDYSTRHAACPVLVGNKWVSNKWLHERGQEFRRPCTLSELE
# Sequence (P09102 23-515 partner): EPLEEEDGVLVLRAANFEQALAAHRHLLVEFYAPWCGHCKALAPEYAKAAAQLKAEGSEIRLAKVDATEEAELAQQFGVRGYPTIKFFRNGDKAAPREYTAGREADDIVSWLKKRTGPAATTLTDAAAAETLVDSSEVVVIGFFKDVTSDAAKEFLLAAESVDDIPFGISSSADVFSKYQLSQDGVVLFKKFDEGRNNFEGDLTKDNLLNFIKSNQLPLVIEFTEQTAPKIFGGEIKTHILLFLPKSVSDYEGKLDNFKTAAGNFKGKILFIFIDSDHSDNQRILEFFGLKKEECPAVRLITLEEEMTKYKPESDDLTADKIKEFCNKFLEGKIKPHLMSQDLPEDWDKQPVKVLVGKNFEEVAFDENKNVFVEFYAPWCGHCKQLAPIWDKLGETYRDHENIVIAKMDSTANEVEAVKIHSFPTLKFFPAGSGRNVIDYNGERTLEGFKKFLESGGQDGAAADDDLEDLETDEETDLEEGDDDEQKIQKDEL
# procedure-summary: Protocollagen proline hydroxylase-inhibiting activity
# Assay type: biochemical
# condition-details: Concentration 20 μM; partially purified chick embryo enzyme, 100 μg as protein; substrate (Pro-Pro-Gly)5.4H2O
experimental-readout: inhibition at 20 µM (%)

> print(dat)
                                   compound  value
1  COC1=C(OC)C(=O)C(CCCCCCCC(=O)O)=C(C)C1=O [A:CO n:7 R:H]     35
2  COC1=C(OC)C(=O)C(CCCCCCCCCCO)=C(C)C1=O [A:CH2 n:9 R:H]     37
3  COC1=C(OC)C(=O)C(CCCC(=O)O)=C(C)C1=O [A:CO n:3 R:H]     57
4  COC(=O)CCCCCCCCCC1=C(C)C(=O)C(OC)=C(OC)C1=O [A:CO n:9 R:CH3]     21
5  COC1=C(OC)C(=O)C(CCCCCCCCCC(=O)O)=C(C)C1=O [A:CO n:9 R:H]     31
